Target: T1, IL-2 receptor of the human CD4 positive T cell clone 3F8 (expresses CD25 and CD122) (human, UniProt P01589 22-272; P14784 27-551)
T1 sequence 1: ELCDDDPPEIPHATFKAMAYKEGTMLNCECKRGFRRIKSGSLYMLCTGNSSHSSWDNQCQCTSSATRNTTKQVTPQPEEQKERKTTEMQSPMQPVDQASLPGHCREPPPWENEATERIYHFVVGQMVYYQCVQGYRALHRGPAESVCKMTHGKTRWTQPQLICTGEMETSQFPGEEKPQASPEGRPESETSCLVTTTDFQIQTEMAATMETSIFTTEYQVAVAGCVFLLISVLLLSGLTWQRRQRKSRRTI
T1 sequence 2: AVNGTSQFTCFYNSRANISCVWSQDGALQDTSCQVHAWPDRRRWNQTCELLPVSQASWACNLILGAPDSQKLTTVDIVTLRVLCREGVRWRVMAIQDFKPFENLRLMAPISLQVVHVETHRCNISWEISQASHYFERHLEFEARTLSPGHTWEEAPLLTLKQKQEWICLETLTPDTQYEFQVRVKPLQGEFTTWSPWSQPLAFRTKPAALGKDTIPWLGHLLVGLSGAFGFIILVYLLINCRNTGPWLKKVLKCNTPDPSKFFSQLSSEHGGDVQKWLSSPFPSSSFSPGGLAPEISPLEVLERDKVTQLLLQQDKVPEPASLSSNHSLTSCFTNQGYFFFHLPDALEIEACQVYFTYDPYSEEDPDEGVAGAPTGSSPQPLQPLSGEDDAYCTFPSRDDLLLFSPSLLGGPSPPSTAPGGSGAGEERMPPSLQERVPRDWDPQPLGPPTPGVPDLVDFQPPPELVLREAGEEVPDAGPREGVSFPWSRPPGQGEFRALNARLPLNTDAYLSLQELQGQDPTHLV
Assay: cell-based or functional assay
Assay Metric: Proliferation IC50 (pM), 3F8 cells

Some solved cases for reference:
hIL2 mutein REE (L18R, Q22E, Q126E) (ligand) APTSSSTKKTQLQLEHLRLDLEMILNGINNYKNPKLTRMLTFKFYMPKKATELKHLQCLEEELKPLEEVLNLAQSKNFHLRPRDLISNINVIVLELKGSETTFMCEYADETATIVEFLNRWITFCESIISTLT ... 33
hIL2 mutein RER (L18R, Q22E, Q126R) (ligand) APTSSSTKKTQLQLEHLRLDLEMILNGINNYKNPKLTRMLTFKFYMPKKATELKHLQCLEEELKPLEEVLNLAQSKNFHLRPRDLISNINVIVLELKGSETTFMCEYADETATIVEFLNRWITFCRSIISTLT ... 13.1

I: hIL2 mutein RTK (L18R, Q22T, Q126K) (ligand) APTSSSTKKTQLQLEHLRLDLTMILNGINNYKNPKLTRMLTFKFYMPKKATELKHLQCLEEELKPLEEVLNLAQSKNFHLRPRDLISNINVIVLELKGSETTFMCEYADETATIVEFLNRWITFCKSIISTLT
II: hIL2 mutein IEK (L18I, Q22E, Q126K) (ligand) APTSSSTKKTQLQLEHLILDLEMILNGINNYKNPKLTRMLTFKFYMPKKATELKHLQCLEEELKPLEEVLNLAQSKNFHLRPRDLISNINVIVLELKGSETTFMCEYADETATIVEFLNRWITFCKSIISTLT
III: hIL2 mutein REF (L18R, Q22E, Q126F) (ligand) APTSSSTKKTQLQLEHLRLDLEMILNGINNYKNPKLTRMLTFKFYMPKKATELKHLQCLEEELKPLEEVLNLAQSKNFHLRPRDLISNINVIVLELKGSETTFMCEYADETATIVEFLNRWITFCFSIISTLT
Arrange the 3 entries by Proliferation IC50 (pM), 3F8 cells so the values rise. Submit the labels in the order that the ranking request calls for. II, III, I
(II: 10 pM, III: 37.6 pM, I: 62.8 pM)
